# Test system: HIV-1
# Procedure Details: Inhibition of HIV-induced cytopathic effect in MT-4 cells (MTT)
# Assay type: cell-based
# Protocol Conditions: dose achieving 50% protection of HIV-infected MT-4 cells; mean, number of experiments in brackets
Measured Metric: pIC50
Answers are plain numbers, as −log10 of the molar value.

1. CC(=N)Nc1nc(Cc2c(Cl)cccc2Cl)nc(Nc2ccc(C#N)cc2)n1 :: 8.52
2. CCOc1cccc(Cc2nc(N)nc(Nc3ccc(C#N)cc3)n2)c1 :: 7.13

Please give pIC50, item by item, for the list that follows.
1. N#Cc1ccc(Nc2nc(Cc3c(Cl)cccc3Cl)nc(NC(CCO)C(N)=O)n2)cc1 (racemic)
2. CN(C)CCNc1nc(Cc2c(Cl)cccc2Cl)nc(Nc2ccc(C#N)cc2)n1
3. N#Cc1ccc(Nc2nc(N)nc(C(CC3CC3)c3c(Cl)cccc3Cl)n2)cc1 (racemic)
4. COc1cccc(Cc2nc(N)nc(Nc3ccc(C#N)cc3)n2)c1

Reply |
1. 7.24
2. 7.30
3. 5.16
4. 7.09
